- System: panel of nearly 500 cancer cell lines
- Method Summary: Cancer Cell Line Encyclopedia profiling, 3-day CellTiter-Glo
- Assay type: cell-based
- Condition Set: ln18 (central_nervous_system); read-out: IC50
pIC50: −log10 of the molar value.
Metric Name: pIC50

[
  {
    "Chemical Structure": "CC(=O)c1c(C)c2cnc(Nc3ccc(N4CCNCC4)cn3)nc2n(C2CCCC2)c1=O",
    "Metric Name": "pIC50",
    "Recorded Value": "< 5.10"
  }
]

---

- Tested on: panel of nearly 500 cancer cell lines
- Method Summary: Cancer Cell Line Encyclopedia profiling, 3-day CellTiter-Glo
- Assay type: cell-based
- Condition Set: ncih1092 (lung); read-out: IC50

[
  {
    "Chemical Structure": "CC(=O)c1c(C)c2cnc(Nc3ccc(N4CCNCC4)cn3)nc2n(C2CCCC2)c1=O",
    "IC50": "> 8 µM"
  }
]

src = paper PMC6219668
